Biological target: purified recombinant human Aggrecanase-1 (rAgg1) (Homo sapiens, UniProt O75173)
Sequence (O75173 213-837): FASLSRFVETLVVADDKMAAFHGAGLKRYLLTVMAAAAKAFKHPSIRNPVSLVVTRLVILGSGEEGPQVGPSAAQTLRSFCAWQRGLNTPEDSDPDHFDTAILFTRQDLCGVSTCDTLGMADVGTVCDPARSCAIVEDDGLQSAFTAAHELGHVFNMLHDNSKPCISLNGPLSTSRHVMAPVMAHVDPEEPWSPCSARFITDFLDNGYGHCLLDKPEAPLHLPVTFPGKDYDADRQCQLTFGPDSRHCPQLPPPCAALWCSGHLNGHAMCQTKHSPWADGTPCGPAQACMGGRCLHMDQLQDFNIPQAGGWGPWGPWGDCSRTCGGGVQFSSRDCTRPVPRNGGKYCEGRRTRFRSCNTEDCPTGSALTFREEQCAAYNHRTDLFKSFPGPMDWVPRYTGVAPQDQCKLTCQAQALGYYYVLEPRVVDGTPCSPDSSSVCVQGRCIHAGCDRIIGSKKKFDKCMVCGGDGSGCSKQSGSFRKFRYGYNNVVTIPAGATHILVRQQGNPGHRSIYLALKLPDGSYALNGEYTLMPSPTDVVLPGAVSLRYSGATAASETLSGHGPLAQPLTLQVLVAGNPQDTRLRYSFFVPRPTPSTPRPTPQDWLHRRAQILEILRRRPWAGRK
Experiment: In vitro fluorescence screen for Aggrecanase-1 inhibitors
Format: biochemical
Conditions: Table 1; read-out: Agg1 IC50
Listed compounds paired with reported IC50
The figure you give is taken to be in nM; do not add the unit.

For orientation, consider the following solved cases.
{"columns": ["compound", "reported"],
 "data": [
  ["O=C(O)CC[C@H](NC(=O)c1ccc(-c2ccc(OCc3ccc4ccccc4c3)cc2)cc1)C(=O)NCc1ccccc1 [Example 15H]", 200],
  ["CCCNC(=O)[C@H](CCC(=O)O)NC(=O)c1ccc(-c2ccccc2)cc1 [Example 8YYY]", 100],
  ["O=C(O)CC[C@H](NC(=O)c1ccc(-c2ccc(NC(=O)c3ccco3)cc2)cc1)C(=O)O [Example 28]", 400],
  ["O=C(O)CC[C@H](NC(=O)c1ccc(-c2ccccc2)cc1)C(=O)NCCc1ccc(-c2cccs2)cc1 [Example 10D]", 480]
]}

Let's switch to this compound now.
Name the recorded IC50 of the compound listed here: COc1ccc(CCNC(=O)[C@H](CCC(=O)O)NC(=O)c2ccc(-c3ccccc3)cc2)cc1OC [Example 8L]
55
